Measured values drawn from PubChem BioAssay (NCI) for this set.

Tested on: NCI-H226 lung
TEST_DETAILS: NCI tumour cell line growth inhibition, 48 h
// reported TGI for each item listed

Field: example entries. Status: answers known.
COMPOUND	OUTCOME_MEASURE	MEAS_VALUE
COc1ccc2c(c1OC)C(=O)O[C@@H]2[C@H]1c2cc3c(cc2CCN1C)OCO3	TGI	> 100 µM
O/N=C1/C2CC3CC1(c1ccccc1)CC(/C3=N/O)/C2=N\O (stereo not drawn)	TGI	> 100 µM
CN(CCc1ccc(Cl)c(Cl)c1)CCN(C)CCN1CCCC1	TGI	38.5 µM
COC(=O)/C(=C\c1ccco1)P(=O)(OC)OC	TGI	> 100 µM
CCCCCn1c(=O)c2c(=O)[nH][nH]c2c2ccccc21	TGI	> 100 µM
C#CCSc1nc(N)c2ncn(C3OC(COP(=O)(O)O)C(O)C3O)c2n1 (stereo not drawn)	TGI	> 239 µM
Brc1cccc(-c2cc(-c3ccc4nccnc4c3)[nH]n2)c1	TGI	> 250 µM

Here is another compound to look at.
I looked up Cc1c(C#N)c2nnn(-c3ccccc3)c(=O)n2c1-c1ccccc1 and its TGI for NCI-H226 lung was > 100 µM

----------
Test system: RPMI-8226 leukemia
TEST_DETAILS: NCI tumour cell line growth inhibition, 48 h
OUTCOME_MEASURE: TGI (µM)
Supply the numeric figure in µM, leaving out any unit text.

Field: example entries. Status: answers known.
MOLECULE	TGI, µM
COc1ccc(-c2ccc(/C=N/n3c(COc4ccccc4Cl)n[nH]c3=S)o2)c([N+](=O)[O-])c1	92.9
COc1nc(OC)nc(-c2cccc(F)c2)n1	45.3
CCOC(=O)C1=C(C)N2C(=NC3=C(CCC/C3=C\c3ccc(Cl)cc3)C2c2ccc(Cl)cc2)S1 (stereo not drawn)	4.04
COc1ccc(Oc2ccccc2NC(=O)CNC(=O)c2cccc3ccccc23)cc1	8.45
CC/C=C\C/C=C/C=C1/C(=O)C=C[C@@H]1C/C=C\CCCC(=O)OC	12.8

Lab book: TGI of COc1cccc(C2C(C#N)=C(N)Oc3c2ccc2ccccc32)c1 (stereo not drawn) noted as 3.22

Lab book: TGI of Nc1n[nH]c2ccc([C@@H]3Nc4cc5[nH]ncc5cc4[C@H]4C5CCC(C5)[C@@H]34)cc12 (stereo partly drawn) noted as 12.6

Lab book: TGI of Cc1cccc2c(Nc3ccc(NS(C)(=O)=O)cc3)c3ccc([N+](=O)[O-])cc3nc12 noted as 7.56

Lab book: TGI of COc1ccc2c(c1)/C(=C\c1c[nH]c3ccc(OC)cc13)C(=O)N2 noted as 8.89

----------
// reported TGI for each item listed
System: HS 578T breast
TEST_DETAILS: NCI tumour cell line growth inhibition, 48 h
Supply the numeric figure in µM, leaving out any unit text.

STRUCTURE	SUBJECT_OF_TEST	UNITS_SYMBOL	MEAS_VALUE
CCOC(=O)c1c(NCc2ccccc2)n(-c2ccccc2)c(=S)n(-c2ccccc2)c1=O	HS 578T breast	µM	94.4
COc1cc2c(cc1C)NC(=O)/C2=C\c1ccncc1	HS 578T breast	µM	8.1

Here is another compound to look at.
Lab book: TGI of COc1cc(OC)cc(-n2c(N)c(-c3nc4ccccc4n3C)c3ccc([N+](=O)[O-])cc3c2=O)c1 noted as 83.3

----------
System: UO-31 renal
TEST_DETAILS: NCI tumour cell line growth inhibition, 48 h; in the data active = GI50 below about 0.43 µM; inactive = the rest
Answer with one of the outcomes active, inactive

Worked cases, answers included:
STRUCTURE	LABEL
COc1ccc2c(c1)C(=O)c1c-2n(CCCN)c(=O)c2cc([N+](=O)[O-])ccc12	active
Cc1oc2c(c1C(=O)N1CC[C@@H](N)C1)C(=O)c1c(c(O)c3ccccc3c1O)C2=O	active
CN1CCN(c2cc3nc4ccccc4n(-c4ccc(Cl)cc4)c-3cc2=N)CC1	inactive
O=c1c(-c2ccccc2)coc2cc(OC/C(=N/O)c3ccc(F)cc3)ccc12	inactive

Now for another entry.
State the result this test recorded for COc1ccc(-c2ccc(/C=N/n3c(COc4ccccc4Cl)n[nH]c3=S)o2)c([N+](=O)[O-])c1 .
inactive

----------
Test system: MALME-3M melanoma
TEST_DETAILS: NCI tumour cell line growth inhibition, 48 h
OUTCOME_MEASURE: GI50

COMPOUND	SUBJECT_OF_TEST	GI50
O=C1CCC(N2C(=O)c3cccc(NCCCC4CCN(CCNC(=O)c5cc6c(o5)C(=O)c5ccccc5C6=O)CC4)c3C2=O)C(=O)N1 (stereo not given)	MALME-3M melanoma	140 nM

I looked up NNc1c2ccccc2nc2ccccc12 and its GI50 for MALME-3M melanoma was 5030 nM

I looked up COc1cc(/C=C/[N+](=O)[O-])cc(OC)c1OC and its GI50 for MALME-3M melanoma was 2290 nM

I looked up Cc1oc2c(c1C(=O)N1CC[C@@H](N)C1)C(=O)c1c(c(O)c3ccccc3c1O)C2=O and its GI50 for MALME-3M melanoma was 1780 nM

----------
// reported TGI for each item listed
Test system: U251 CNS
TEST_DETAILS: NCI tumour cell line growth inhibition, 48 h
Supply the numeric figure in µM, leaving out any unit text.

Field: example entries. Status: answers known.
COMPOUND	TGI, µM
NNc1c2ccccc2nc2ccccc12	40.6
COc1cc2c(cc1C)NC(=O)/C2=C\c1ccncc1	18.6
O=c1c(-c2ccccc2)coc2cc(OC/C(=N/O)c3ccc(F)cc3)ccc12	36.8

Here is another compound to look at.
Lab book: TGI of O=C1CSC(c2ccccc2O)N1c1nnc(Cn2ccnc2)o1 (stereo not given) noted as 63.6

----------
Tested on: SF-295 CNS
TEST_DETAILS: NCI tumour cell line growth inhibition, 48 h
OUTCOME_MEASURE: GI50

Field: example entries. Status: answers known.
COMPOUND	GI50
COc1ccc(-c2ccc(/C=N/n3c(COc4ccccc4Cl)n[nH]c3=S)o2)c([N+](=O)[O-])c1	22600 nM
O=c1c(O)cccn1CCCN(CCCn1cccc(O)c1=O)CCn1cccc(O)c1=O	3630 nM
Brc1cccc(-c2cc(-c3ccc4nccnc4c3)[nH]n2)c1	1110 nM
O=S(=O)(NC1=NCCN1C(=S)SN1CCn2c1nsc2=S)c1cccc(OC(F)(F)F)c1	23600 nM
COc1ccc(Oc2ccccc2NC(=O)CNC(=O)c2cccc3ccccc23)cc1	402 nM
Cc1cc(NC(=O)c2cnc(N3CCN(CCOCCOCCOCCOCCC(=O)N[C@H](C(=O)N4C[C@H](O)C[C@H]4C(=O)N[C@@H](C)c4ccc(-c5scnc5C)cc4)C(C)(C)C)CC3)cn2)c2ncccc2c1	2230 nM
CCN(C(=O)CN1CCN(c2cc3c(cc2F)c(=O)c(C(=O)O)cn3CC)CC1)c1nc(-c2ccccc2)cs1	235 nM
NS(=O)(=O)c1cccc(-c2ccc3c(NC(=O)C4CC4)n[nH]c3c2)c1	> 25000 nM

I looked up Cc1cccc2c(Nc3ccc(NS(C)(=O)=O)cc3)c3ccc([N+](=O)[O-])cc3nc12 and its GI50 for SF-295 CNS was 290 nM

I looked up O=C1/C(=C/c2cccc(Br)c2)COc2ccc(O)c(O)c21 and its GI50 for SF-295 CNS was 2750 nM

I looked up Cc1oc2c(c1C(=O)N1CC[C@@H](N)C1)C(=O)c1c(c(O)c3ccccc3c1O)C2=O and its GI50 for SF-295 CNS was 272 nM

----------
// reported GI50 for each item listed
Tested on: NCI-H23 lung
TEST_DETAILS: NCI tumour cell line growth inhibition, 48 h

COMPOUND	MEAS_VALUE
COc1cccc2c1[C@H]1CO[C@H]3C4C[C@H](C(=O)O)C([C@@H](C2)N13)N4C (stereo partly specified)	0.564 µM
O=S(=O)(NC1=NCCN1C(=S)SN1CCn2c1nsc2=S)c1cccc(OC(F)(F)F)c1	12.8 µM
CN1CCN(c2cc3nc4ccccc4n(-c4ccc(Cl)cc4)c-3cc2=N)CC1	15.9 µM

Lab book: GI50 of NNc1c2ccccc2nc2ccccc12 noted as 1.37 µM

Lab book: GI50 of N/C(=N\c1nc2ccccc2s1)NC(=NC1CCCCC1)NC1CCCCC1 noted as 1.75 µM

Lab book: GI50 of O=C1CSC(c2ccccc2O)N1c1nnc(Cn2ccnc2)o1 (stereo unspecified) noted as 14.9 µM

----------
Test system: RPMI-8226 leukemia
TEST_DETAILS: NCI tumour cell line growth inhibition, 48 h
Where a SMILES comes first, the peptide text is derived from it. [ ]: non-standard residue; d: D form. The star is where a group is joined. ξ: configuration not given here. ξD = NC(CC(=O)O)C(=O)O; Ac3c = NC1(C(=O)O)CC1; Boc = CC(C)(C)OC(=O)*; OtBu = CC(C)(C)O*
OUTCOME_MEASURE: TGI

Field: example entries. Status: answers known.
COMPOUND	TGI
CCOC(=O)c1c(NCc2ccccc2)n(-c2ccccc2)c(=S)n(-c2ccccc2)c1=O	> 100 µM
O=C(O)c1cc(Cl)cc2c1NC1(N2)C(=O)Nc2ccccc21 (stereo not given)	> 100 µM
COc1cccc(NC(=O)CC(=O)NNCC(=O)Nc2nnc(-c3ccc(N(CCC#N)S(=O)(=O)c4ccccc4)cc3)s2)c1	> 100 µM
COC(=O)C1(NC(=O)C(CC(=O)OC(C)(C)C)NC(=O)OC(C)(C)C)CC1 (stereo not given) (Boc-[ξD](OtBu)-[Ac3c]-OMe)	> 100 µM
CC(C)(C)c1cc(C(=O)/C=C/c2ccn[nH]2)cc(C(C)(C)C)c1O	3.37 µM
Nc1ncnc2c1nnn2C1C=C(CO)C(O)C1O (stereo not given)	> 62.7 µM
COc1cc(/C=C2\Cc3cc(OC)c(OC)cc3C2=O)cc(OC)c1	> 100 µM
Cc1ccc(N=C2SC(c3ccc(C)cc3)(c3ccc(C)cc3)c3ccccc32)cc1	> 100 µM

Lab book: TGI of CCn1c2ccc(O)c(C(=O)OC)c2c2cc3ccccc3c(O)c21 noted as 33.3 µM

Lab book: TGI of O=C(NN1C(=O)CSC1c1ccc(F)cc1)C(O)c1ccccc1 (stereo not given) noted as > 100 µM
